- System: HBV
- Test details: anti-HBV activity, HepG2.2.15 stable transfected cell line, HBV DNA from secreted virions by realtime PCR
- Type: cell-based
- Condition label: Hepatitis B virus, 144 h, HepG2.2.15 cells, 6 days of treatment
Readout kind: pEC50
Worth noting: pEC50 values are minus log10 of concentrations stated in mol/L.

C[C@@H](NS(=O)(=O)c1cn(C)c(C(=O)Nc2ccnc(C#N)c2)c1F)C(F)(F)F : 7.52

Now consider the entry below.
Consider the molecule Cn1cc(S(=O)(=O)NC2(C)CC(F)(F)C2)c(Cl)c1C(=O)Nc1ccnc(F)c1 and give its recorded pEC50.
6.68
